Biological target: Delta-type opioid receptor (Homo sapiens)
Sequence (P41143 whole entry): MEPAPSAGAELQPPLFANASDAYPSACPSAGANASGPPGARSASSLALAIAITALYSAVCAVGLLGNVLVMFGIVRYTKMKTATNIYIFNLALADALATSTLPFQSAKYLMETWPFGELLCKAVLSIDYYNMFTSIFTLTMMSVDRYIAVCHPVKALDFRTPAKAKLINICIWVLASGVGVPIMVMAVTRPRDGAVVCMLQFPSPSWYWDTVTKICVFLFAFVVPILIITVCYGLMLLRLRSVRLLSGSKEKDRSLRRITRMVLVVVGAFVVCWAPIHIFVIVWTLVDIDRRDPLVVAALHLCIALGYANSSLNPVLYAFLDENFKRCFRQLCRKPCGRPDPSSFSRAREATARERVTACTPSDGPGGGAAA
Experiment: Binding affinity to delta opioid receptor (unknown origin)
Starred links: 1 amine or outer side, 2 acyl side, 3 side chain; linkers in the order of their positions; H or OH if unused. Positions of bridges follow the written chain, without caps; N, C: chain ends. Non-standard residues stand in square brackets, D forms with d. Residues, ends and D or L forms follow the SMILES beside them. dPen = CC(C)(S)[C@@H](N)C(=O)O; CH2CH2 = C(C[*:2])[*:1]
measure.name: pKi
Answers are plain numbers, as −log10 of the molar value.

Query block: Tell me the measured pKi of CC1(C)SCCSC[C@@H](NC(=O)[C@@H](N)Cc2ccc(O)cc2)C(=O)N[C@@H](Cc2ccccc2)C(=O)N[C@H]1C(N)=O (H-Y[dC]F[dPen]-NH2; linker 2-4 via CH2CH2) , please.
Result block: 7.61

Cited source for all entries: ChEMBL document CHEMBL3596173
